Values were extracted from PubChem BioAssay (NCI).

Test: NCI Yeast Anticancer Drug Screen. Data for the wt2 strain (AID 169)
Conditions: S. cerevisiae wt2 strain growth inhibition; at 3.7 µM
Method: Growth inhibition of yeast strains with defined genetic alterations is measured as a screen for potential anti-cancer activity. Selected strains with alterations in DNA damage repair or cell cycle control were exposed to compounds and growth inhibition was measured relative to vehicle treated controls. The strain used in this assay is wt2
The panel holds about 79,000 compounds, 15% with a hit somewhere; the sample as a whole holds those more often. Activity calls are given as the source filed them. No stated cut-off is given here; in the data, active means growth inhibition above about 70%; inactive means the rest.
Labels: YES = active, NO = inactive

COMPOUND | CAT
COc1cc(C2SCC(=O)N2c2ccc(-c3ccc(-n4c(-c5ccccc5)nc5ccccc5c4=O)cc3)cc2)cc(OC)c1OC (stereo not given) | NO
O=[N+]([O-])c1cc(CCl)ccc1CCl | NO
CC(C)/C(Cl)=N\OC(=O)Nc1ccc(F)cc1 | NO
CC1(Cl)CC(O)C2(CC1Br)C1(C)OC1C1OC1(Br)C2(C)C (stereo not given) | NO
CC(=O)Nc1ccc2c(c1)C(=Nc1ccc(C(=O)O)cc1)c1ccccc1-2 | NO
CCCCN(CCCC)CCSc1ccc(Cl)cc1 | NO
CCCCCCCCCCC1CCC(=O)O1 (stereo not given) | NO
O=C(NCCCNCCCNC(=O)c1cc(-c2ccccc2)nc2ccccc12)c1cc(-c2ccccc2)nc2ccccc12 | NO
Cc1cc(S(=O)(=O)/N=C(/NN)NNc2cccc(C(F)(F)F)n2)c(S)cc1Cl | NO
[O-][n+]1c2ccc(O)cc2nc2ccc(Cl)cc21 | NO
[N-]=N[N+]#I1OC(C(F)(F)F)(C(F)(F)F)c2ccccc21 | YES
Cc1c(C(Cc2ccccc2N(C)C(=O)/C=C\C(=O)O)c2c[nH]c3ccccc23)c2ccccc2n1C (stereo not given) | NO
Clc1ccccc1C1OC1c1ccccc1Cl (stereo not given) | NO
CC1=NN(c2cccc(Cl)c2)C(=O)C1 | NO
COC(=O)c1ccc(CCC2=CC(=O)C(Br)=CC2=O)cc1 | NO
CCCC/C=C/C(CC)(C(=O)OCC)C(=O)OCC | NO
O=C(NC(Nc1ccc(F)c(Cl)c1)(C(F)(F)F)C(F)(F)F)C(C(F)(F)F)C(F)(F)F | NO
O=Nc1c(NO)ccc2nn(-c3ccccc3)nc12 | NO
CN(N=O)N1C(=O)SCC(c2ccccc2)(c2ccccc2)C1=O | NO
CCN(CC)CC(O)c1ccc2ccc3ccccc3c2c1 (stereo not given) | NO
O=C(OCCN1CCCCCC1)C(c1ccsc1)C1CCCCC1 (stereo not given) | NO
CCN(CC)CCN1C(=O)c2cccc3cc(OC)cc(c23)C1=O | NO
COc1ccc2nc3cccc([N+](=O)[O-])c3c(NCCN(CCO)CCO)c2c1 | NO
Oc1ccc2ccccc2c1C(c1ccc(Cl)cc1)c1c(O)ccc2ccccc12 | NO
Cc1ccc(S/N=C\c2ccccc2O)cc1 | NO
CCC(=O)OCCn1c2nc(=O)[nH]c(=O)c-2nc2cc(C)c(C)cc21 | NO
Cc1ccc(S(=O)(=O)NNC(=S)Nc2cccc3ccccc23)cc1 | NO
O=C(NNc1ccnc2cc(Cl)ccc12)/C(=C\c1ccccc1Cl)NC(=O)c1ccccc1 | NO
O=C(NCCCCNCCCNC(=O)c1cc(-c2ccccc2)nc2ccccc12)c1cc(-c2ccccc2)nc2ccccc12 | NO
CC(C)NC(=O)OCc1c(COC(=O)NC(C)C)c(-c2ccc(Cl)c(Cl)c2)n2c1CCC2 | NO
NCCNc1ccc(NCCN)c2c1C(=O)c1c(O)ccc(O)c1C2=O | NO
CCN(CC)C(C)(C)C(=O)/C=C/c1ccccc1 | NO
COC(=O)CCNc1c2ccccc2nc2cccc([N+](=O)[O-])c12 | NO
O=[N+]([O-])c1cccc2nccc(NCCCO)c12 | NO
CN1c2ccc(Cl)cc2C(=O)NC1c1ccc([N+](=O)[O-])s1 (stereo not given) | NO
Cc1cc2c(cc1C(=O)CCC(=O)O)CC1(C2)Cc2cc(C)c(C(=O)CCC(=O)O)cc2C1 | NO
CCN(CC)CC[n+]1ccc2c(C)c3[nH]c4ccc(O)cc4c3c(C)c2c1 | NO
C(=C\c1ccccc1)/COc1ccccc1C(N1CCOCC1)n1nc2ccccc2n1 (stereo not given) | NO
CCCCCCCCCCNC(=O)OCC | NO
COc1ccc(-c2cn(-c3ccc(I)cc3)c3ncnc(N)c23)cc1 | NO
COc1ccccc1C(=O)OCC1CCCN2CCCCC12 (stereo not given) | NO
Cc1cccc2c(C(O)CBr)cc(-c3ccc(Cl)cc3)nc12 (stereo not given) | NO
CCCCOC(=O)N[C@H]1CCc2cc(OC)c(OC)c(OC)c2-c2ccc(SC)c(=O)cc21 | NO
CN(C)c1nc2sc3c(c2c(=O)o1)CCCC3 | NO
CCCN(CCC)CC(O)c1cc(-c2ccc(Cl)cc2)nc2c(C)c(Cl)ccc12 (stereo not given) | NO
